I'd appreciate it if you could supply IC50 values for the items below.
Test system: HCT116 MTAP null cells
Assay: HCT116 proliferation assay, MTAP null cells (CellTiter-Glo, 6 days)
Format: cell-based
Conditions: HCT116-MTAP null, 144 h, read-out: Protif_ HCT116-MTAP null IC50
Record the value in nM, omitting the unit from your answer.

query: Missing value: IC50, HCT116 MTAP null cells, entry `C[C@H](c1ncccn1)N(Cc1ccc(C(F)F)cn1)C(=O)c1ccc2nc(N)c(Br)cc2c1` . Fill in?
result: 88

query: Another molecule: COC(CN(Cc1ccc(C(F)(F)F)cn1)C(=O)c1ccc2nc(N)c(C)cc2c1)C(F)(F)F (stereo not shown)
result: 70

query: Please answer likewise for `Cc1cc2c(CN(Cc3ccc(C(F)(F)F)cn3)C(=O)c3ccc4nc(N)c(C)cc4c3)ccnc2[nH]1`
result: 107

query: Then `Cc1cc2cc(C(=O)N(Cc3ccc(C(F)(F)F)cn3)Cc3csnn3)ccc2nc1N` ?
result: 102

Each recorded value in this set is attributed to patent US20230159510A1.
